target: UniProt:Q92847; experiment: Inositol phosphate turnover assay in COS-7 cells transfected with the Ghrelin receptor; settings: EC50, inverse agonist potency, COS-7 cells transfected with the Ghrelin receptor
Sequence (Q92847 whole entry, species assumed): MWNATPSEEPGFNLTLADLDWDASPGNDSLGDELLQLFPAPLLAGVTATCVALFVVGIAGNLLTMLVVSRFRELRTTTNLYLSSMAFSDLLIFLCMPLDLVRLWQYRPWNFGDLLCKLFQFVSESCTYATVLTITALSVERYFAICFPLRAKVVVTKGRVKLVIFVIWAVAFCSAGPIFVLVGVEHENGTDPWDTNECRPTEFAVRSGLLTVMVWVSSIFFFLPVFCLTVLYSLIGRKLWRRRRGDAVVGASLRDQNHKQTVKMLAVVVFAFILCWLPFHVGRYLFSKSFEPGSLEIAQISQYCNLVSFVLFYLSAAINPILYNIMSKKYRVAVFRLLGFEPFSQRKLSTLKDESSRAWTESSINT
Square brackets hold non-standard residues; d marks the D form. Peptide text beside a SMILES is read from it. * marks the point of attachment. d1Nal = N[C@H](Cc1cccc2ccccc12)C(=O)O; Palmitoyl = CCCCCCCCCCCCCCCC(=O)*
Each entry below carries its recorded pEC50.
The meaning of pEC50 here: minus log10 of the concentration in molar units.

Some entries whose results are on file:
# compound, pEC50
data = [
    ("CC(C)C[C@H](NC(=O)[C@@H](Cc1c[nH]c2ccccc12)NC(=O)[C@H](Cc1ccccc1)NC(=O)[C@@H](Cc1cccc2ccccc12)NC(=O)[C@@H](N)CCCCN)C(=O)N[C@@H](CCCCN)C(N)=O [compound 3, K-(D-1-Nal)-FwLK-NH2] (H-K[d1Nal]F[dW]LK-NH2)", 6.79),
    ("CCCCCCCCCCCCCCCC(=O)NCCCC[C@H](NC(=O)[C@H](CC(C)C)NC(=O)[C@@H](Cc1c[nH]c2ccccc12)NC(=O)[C@H](Cc1ccccc1)NC(=O)[C@@H](Cc1cccc2ccccc12)NC(=O)[C@@H](N)CCCCN)C(N)=O [compound 5] (H-K[d1Nal]F[dW]LK(Palmitoyl)-NH2)", 8.46),
    ("CC(C)C[C@H](NC(=O)[C@H](CC(C)C)NC(=O)[C@@H](Cc1c[nH]c2ccccc12)NC(=O)[C@H](Cc1ccccc1)NC(=O)[C@@H](Cc1cccc2ccccc12)NC(=O)[C@H](CCCCN)NC(=O)[C@@H](N)CCCCN)C(N)=O [compound 4, KK-(D-1-Nal)-FwLL-NH2] (H-KK[d1Nal]F[dW]LL-NH2)", 7.89),
]

Please turn your attention to the following entry.
Kindly note the recorded pEC50 for CCCCCCCCCCCCCCCC(=O)N[C@@H](CCCCN)C(=O)N[C@@H](CCCCN)C(=O)N[C@H](Cc1cccc2ccccc12)C(=O)N[C@@H](Cc1ccccc1)C(=O)N[C@H](Cc1c[nH]c2ccccc12)C(=O)N[C@@H](CC(C)C)C(=O)N[C@@H](CC(C)C)C(N)=O [compound 6, Palm-KK-(D-1-Nal)-FwLL-NH2] (Palmitoyl-KK[d1Nal]F[dW]LL-NH2) , which is 7.96
